Every entry's value here was drawn from the RNAGym collection of RNA variant scans (doi:10.1126/science.aae0568).

B1: tRNA (parent)
chain: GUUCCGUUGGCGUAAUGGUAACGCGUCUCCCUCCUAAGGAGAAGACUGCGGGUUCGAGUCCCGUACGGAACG

Variants of: B1
Experiment: yeast fitness relative to wild type (ratio to wild type); higher = fitter; tRNA-Arg(CCU), competitive growth, 37 C, YPD
Fewer inactive variants are shown than the library holds.
measured_property: yeast fitness
Give the value as a plain number.

Query: Identify the reported yeast fitness for the following entry. C31A G51A G58C
Result: 0.561

Query: Give reported yeast fitness value for A15G A37U A43C
Result: 0.518

Query: For the variant U16C C22G U64C , report yeast fitness.
Result: 0.625

Query: Look up and report measured yeast fitness for this entry: G12A C24U G41A
Result: 0.544

Query: Consider the variant G48C U53C and give its recorded yeast fitness.
Result: 0.694

Query: Provide one value: measured yeast fitness of U28C G68C
Result: 0.884

Query: Give the measured yeast fitness for U13A C49U A65C
Result: 0.624

Query: Output measured yeast fitness for this item: A21C A45C
Result: 0.73

Query: Give recorded yeast fitness. C22A C33U
Result: 0.604

Query: Recall and state the measured yeast fitness for U19A A70U .
Result: 1.03

Query: Return the recorded yeast fitness value; entry: U2C U35A C55A C66A
Result: 0.521

Query: Return reported yeast fitness. Input variant: A21G G63U
Result: 0.752

Query: Tell me yeast fitness reported for C11A A42C G51A
Result: 0.73

Query: Assign yeast fitness to the following record: C4U G44U
Result: 0.757

Query: Give recorded yeast fitness. U7G U28A
Result: 0.704

Query: Return value of yeast fitness for input G9C U16C , no commentary.
Result: 0.731

Query: Look up and report measured yeast fitness for this entry: A15G U54A G63C
Result: 0.631

Query: Kindly indicate its recorded yeast fitness. Item: C30G C60G
Result: 0.521

Query: Read the entry G25A U53A and write its reported yeast fitness.
Result: 0.741

Query: Item A45U C49U U64A : provide yeast fitness
Result: 0.571

Query: Identify yeast fitness associated with the variant C31G G58C C62U
Result: 0.838

Query: Return reported yeast fitness. Input variant: U3A C29U
Result: 0.85
